- method: in vitro
- Set-up: Viability of infected HeLa host cells, resazurin conversion, bulk resorufin fluorescence relative to DMSO
- experimental.context: human, hela cells; bulk resorufin, mean of 2
experimental.endpoint: viability at 28.5 h, 1 µM (%)
The answer is to be given in %; state only the numeric part.

Solved cases below.
O=C(Nc1ccc(F)cc1)c1[nH]c2ccccc2c1NS(=O)(=O)c1cc(Cl)sc1Cl	90
CC(Nc1cc(N2CCN(CCO)CC2)ccc1[N+](=O)[O-])c1ccc(Br)cc1 (stereo not drawn)	91.4
CN(C)CCNc1nc(-c2ccc(Cl)cc2)nc2ccccc12	94.8

Q: May I ask what viability at 28.5 h, 1 µM has been recorded for COC(=O)CCc1ccc(-c2cnc(N)c(-c3ccc(O)cc3)n2)cc1 ?
A: 114

Q: Follow-up entry: COc1ccc([C@@]23CC=C(N(Cc4ccccc4)C(=O)Nc4ccc(F)c(F)c4)C[C@@H]2N(C)CC3)cc1OC
A: 93.3

Q: Follow-up entry: CCN1CCN(c2cc3c(cc2F)c(=O)c(C(=O)NCCOC)cn3C2CC2)CC1
A: 88.9

Q: Follow-up entry: N=C(N)Nc1nc(-c2ccccc2)c2cc(F)ccc2n1
A: 107

Q: Follow-up entry: CN1CCOC(CNc2nc(-c3ccncc3)nc3c2CCC3)C1 (stereo not drawn)
A: 90.5

Q: Follow-up entry: Cc1cc(NS(=O)(=O)c2ccc(NC(=O)CCCOc3ccc(Cl)cc3Cl)cc2)no1
A: 85.1

Q: Follow-up entry: O=C(O)c1cn(C2CC2)c2cc(N3CCN(C(=O)Cc4ccsc4)CC3)c(F)cc2c1=O
A: 90.6

Q: Follow-up entry: O=C(Nc1nccs1)c1cc(C2CCN(C(=O)CC3CCCCC3)C2)nc2ccccc12 (stereo not drawn)
A: 92.6

Q: Follow-up entry: CC(C)(CN)CN(Cc1ccccc1Br)C(=O)NC(c1ccccc1)c1ccccc1 [CBK002488C]
A: 92.2

* * *

# Lookup of reported viability at 28.5 h, 10 µM keyed by entry
- method: in vitro
- experimental.context: human, hela cells, % viability, bulk resorufin, single well
Report the figure along with its unit, number first.

CN(C)Cc1c(O)[nH]c(=S)[nH]c1=O	92.6%

# evaluate next
Q: May I ask what viability at 28.5 h, 10 µM has been recorded for CN1C(=O)C(=CNCCN2CCN(C(=S)Nc3ccccc3)CC2)C(=O)N(C)C1=O ?
A: 97.5%

* * *

# Lookup of reported viability at 28.5 h, 10 µM keyed by entry
- method: in vitro
- experimental.context: human, hela cells, % viability
The answer is to be given in %; state only the numeric part.

Solved cases below.
C[C@@H](Nc1cncc(-c2cccc3ccccc23)n1)c1ccccc1	93.4
NC(=O)c1ccc(Nc2cc(N)ncn2)cc1	94.1
COc1cc(C)c(Nc2cccc(/C=C/c3ccccc3)n2)cc1OC	102

Q: May I ask what viability at 28.5 h, 10 µM has been recorded for CCN(CC)CCCNC(=O)N1CCN(CCN2CCOCC2)CC1 ?
A: 90.9

Q: Follow-up entry: O=S(=O)(Nc1ccc2nsnc2c1)c1cccc(C(F)(F)F)c1
A: 106

Q: Follow-up entry: CC(=O)Nc1ccc(NS(=O)(=O)c2ccc(C)c(C(=O)O)c2)cc1
A: 85.9

Q: Follow-up entry: O=C([C@@H]1Cc2c([nH]c3ccccc23)C2(CCN(Cc3ccccc3)C2)N1)N1CCOCC1 (stereo partly shown) [CBK059363T]
A: 97.3

Q: Follow-up entry: O=C(O)C1=CC(c2ccccc2)=NS(=O)(=O)N1
A: 108

Q: Follow-up entry: CC(=O)c1ccc(-c2ccc3ccc(N)nc3n2)cc1
A: 84.4

Q: Follow-up entry: Cc1cc(OC(F)(F)F)ccc1NS(=O)(=O)c1cnn(-c2ccccc2)c1C
A: 91.1

Q: Follow-up entry: O=C(Nc1c(Cl)cccc1Cl)c1ccc(-c2ccccc2)cc1
A: 94.5

Q: Follow-up entry: Cc1cc(Cl)c(S(=O)(=O)N(C)C)cc1OCC(=O)Nc1ccccc1
A: 89

Q: Follow-up entry: NC(Cc1ccccc1)CN(CC1(c2ccc(Cl)cc2)CC1)C(=O)Nc1ccc2c(c1)OCO2 (stereo not shown) [CBK002342C]
A: 76.1

Q: Follow-up entry: COc1ccnc(C(=O)N(Cc2ccccn2)CC2CCCO2)c1 (stereo not shown)
A: 94.1

Q: Follow-up entry: Cc1ccc(S(=O)(=O)Cc2noc([C@@H]3C[C@@H](O)CN3CC3CCCCC3)n2)cc1
A: 115

Q: Follow-up entry: O=C(c1ccc(OC(F)F)cc1)N1CCCc2cc(S(=O)(=O)N3CCCCC3)ccc21
A: 118

Q: Follow-up entry: Cc1noc(C)c1NC(=O)c1ccncc1
A: 89.9

Q: Follow-up entry: N#CCCN(C(=O)NCCOc1ccccc1)C1CCCCC1
A: 94.9

Q: Follow-up entry: C[C@H](c1ccccc1)n1c(=O)[nH]c2ncc(-c3cccc4cccnc34)nc21
A: 44.4
